test system: JHOS2; experiment: drug sensitivity score (DSS) from 5-point dose-response viability curve (DSS (area-under-curve based score)); higher = more sensitive (stronger growth inhibition or killing); extreme values may be limits of the assay; conditions: exposure time: 72 h; concentration range: 5 concentrations over 10,000-fold range
Recorded drug sensitivity score, one value per entry.

{"chemical_smiles": "O=C(/C=C/c1cccc(S(=O)(=O)Nc2ccccc2)c1)NO", "tgt": "JHOS2", "drug sensitivity score": 10}
{"chemical_smiles": "COc1ccccc1S(=O)(=O)Nc1ccc2c(c1)CN(C)C(=O)N2", "tgt": "JHOS2", "drug sensitivity score": 2.6}
{"chemical_smiles": "COc1cc2c(Oc3ccc4[nH]c(C)cc4c3F)ncnc2cc1OCCCN1CCCC1", "tgt": "JHOS2", "drug sensitivity score": 0}
{"chemical_smiles": "C[C@H]1CN(C2COC2)CCN1c1ccc(Nc2cc(-c3ccnc(N4CCn5c(cc6c5CC(C)(C)C6)C4=O)c3CO)cn(C)c2=O)nc1", "tgt": "JHOS2", "drug sensitivity score": 0}
{"chemical_smiles": "CC[C@H](Nc1ncnc2[nH]cnc12)c1nc2cccc(F)c2c(=O)n1-c1ccccc1", "tgt": "JHOS2", "drug sensitivity score": 0.9}
{"chemical_smiles": "CN(C)Cc1ccc(S(=O)(=O)n2ccc(/C=C/C(=O)NO)c2)cc1", "tgt": "JHOS2", "drug sensitivity score": 5.3}
{"chemical_smiles": "CCN(CC)CCOc1ccc(C(=C(Cl)c2ccccc2)c2ccccc2)cc1", "tgt": "JHOS2", "drug sensitivity score": 3.8}
{"chemical_smiles": "CN[C@@H](C)C(=O)N[C@H](C(=O)N1CCC[C@H]1c1nc(C(=O)c2ccc(F)cc2)cs1)C1CCCCC1", "tgt": "JHOS2", "drug sensitivity score": 9.1}

* * *

test system: HOSE2C; test: drug sensitivity score (DSS) from 5-point dose-response viability curve (DSS (area-under-curve based score)); higher = more sensitive (stronger growth inhibition or killing); extreme values may be limits of the assay; settings: exposure time: 72 h; concentration range: 5 concentrations over 10,000-fold range
readout_name: drug sensitivity score

{"compound": "C=CC(=O)Nc1cccc(Oc2nc(Nc3ccc(N4CCN(C)CC4)cc3)nc3ccsc23)c1", "readout_name": "drug sensitivity score", "meas_value": 0}
{"compound": "O=C1CCC(N2C(=O)c3ccccc3C2=O)C(=O)N1 (stereo not drawn) [Thalidomide]", "readout_name": "drug sensitivity score", "meas_value": 0}
{"compound": "CC#CC(=O)N1CCC[C@H]1c1nc(-c2ccc(C(=O)Nc3ccccn3)cc2)c2c(N)nccn12", "readout_name": "drug sensitivity score", "meas_value": 0}
{"compound": "O=C(NC[C@H](O)CN1CCc2ccccc2C1)c1cc(NC2COC2)ncn1", "readout_name": "drug sensitivity score", "meas_value": 0}
{"compound": "Cc1cnc(Nc2ccc(OCCN3CCCC3)cc2)nc1Nc1cccc(S(=O)(=O)NC(C)(C)C)c1", "readout_name": "drug sensitivity score", "meas_value": 8.5}
{"compound": "Cc1ccc(Nc2nccc(N(C)c3ccc4c(C)n(C)nc4c3)n2)cc1S(N)(=O)=O", "readout_name": "drug sensitivity score", "meas_value": 0}
{"compound": "CCCCCOC(=O)Nc1nc(=O)n([C@@H]2O[C@H](C)[C@@H](O)[C@H]2O)cc1F", "readout_name": "drug sensitivity score", "meas_value": 0}
{"compound": "CC(C)C[C@H](NC(=O)CNC(=O)c1cc(Cl)ccc1Cl)B(O)O", "readout_name": "drug sensitivity score", "meas_value": 7.8}
